# System: UACC-257 melanoma
# Assay Protocol: NCI tumour cell line growth inhibition, 48 h
Recorded measurements of TGI, one per entry

>>> print(df.to_string())
                                   compound  outcome_measure     result
0   CCOC(=O)c1cn2c([nH]c3ccccc32)c(C#N)c1=O              TGI   > 100 µM
1                    N#CSCC(=O)c1ccc(Cl)cc1              TGI  > 28.6 µM
2  COc1cnc2c(c1)C(=O)c1c-2n(CCCN2CCN(CCO)CC2)c(=O)c2cc([N+](=O)[O-])ccc12              TGI    6.87 µM
3  COC1=CC(=O)c2ccccc2C1(C)C1=NC(C)(C)CO1 (stereo not given)              TGI   > 100 µM

We now examine a further compound.
QUERY: Respond only with TGI recorded for CCOC(=O)N1CCC(=O)C[C@@H]1C/C=C/P1(=O)O[C@H](c2ccccc2)C(C)N1C(C)C (stereo not given in full)
RESULT: > 100 µM

* * *

Recorded measurements of TGI, one per entry
# Tested on: CCRF-CEM leukemia
# Assay Protocol: NCI tumour cell line growth inhibition, 48 h

QUERY: State the measured TGI (CCRF-CEM leukemia) of CC(OCc1ccccc1)C(NC(=O)C1CSSCC(NC(=O)C(Cc2ccccc2)NC(=O)OCc2ccccc2)C(=O)NC(Cc2ccccc2)C(=O)NC(Cc2cn(C=O)c3ccccc23)C(=O)NC(CCCCNC(=O)OCc2ccccc2)C(=O)NC(C(C)OCc2ccccc2)C(=O)N1)C(N)=O (centres undefined)
RESULT: > 100 µM

QUERY: State the measured TGI (CCRF-CEM leukemia) of COc1cc(/C=C/C(=O)c2ccc(Nc3nc(Nc4ccccc4)nc(Nc4ccc(Cl)cc4)n3)cc2)cc(OC)c1OC
RESULT: > 32.5 µM

QUERY: State the measured TGI (CCRF-CEM leukemia) of NC1=NS(=O)(=O)Nc2nc(-c3cccs3)[nH]c21
RESULT: > 100 µM

QUERY: State the measured TGI (CCRF-CEM leukemia) of CC[C@H](C)[C@H](NC(=O)C12CC(NC(C)=O)(C1)C2)C(=O)N(C)[C@H](C[C@@H](OC(C)=O)c1nc(C(=O)N[C@@H](Cc2ccccc2)C[C@H](C)C(=O)OC)cs1)C(C)C
RESULT: > 16.7 µM

QUERY: State the measured TGI (CCRF-CEM leukemia) of CC(=O)O/C=C\OC1CCCC1
RESULT: > 100 µM

QUERY: State the measured TGI (CCRF-CEM leukemia) of N#C/C(=C\c1ccc(O)cc1O)C(N)=O
RESULT: > 100 µM

QUERY: State the measured TGI (CCRF-CEM leukemia) of c1cnc2c(c1)Nc1cnncc1S2
RESULT: > 100 µM

QUERY: State the measured TGI (CCRF-CEM leukemia) of COc1ccc(-c2cncn2-c2cc(OC)c(OC)c(OC)c2)cc1F
RESULT: > 100 µM

QUERY: State the measured TGI (CCRF-CEM leukemia) of Cn1c(N)c(-c2c3ccccc3nc3ccccc23)c(=O)n(C)c1=O
RESULT: > 100 µM

* * *

# Test system: DMS 273 small cell lung
# Assay Protocol: NCI tumour cell line growth inhibition, 48 h
Recorded measurements of TGI, one per entry

                                   compound       measurement_target  outcome_measure    result
0  C=C1CC(C/C=C(\C)CC2CC(=C)C(=O)O2)OC1=O (stereo not given)  DMS 273 small cell lung              TGI  > 100 µM
1  CC(C)NC(=O)O/N=C1\CCC2[C@@H]3CC=C4C[C@@H](OC(=O)NC(C)C)CC[C@]4(C)C3CC[C@]12C (stereo not given in full)  DMS 273 small cell lung              TGI   2.82 µM
2  CCOC(=O)C1(Cc2ccc3ccccc3c2)CCCCCN1 (stereo not given)  DMS 273 small cell lung              TGI   38.4 µM
3               CC(C)(C)C[P+](C)(C)c1ccccc1  DMS 273 small cell lung              TGI  > 100 µM
4  C1=c2ccccc2=C2C(=C(c3ccccc3)C(c3ccccc3)=NN2c2ccccc2)S1  DMS 273 small cell lung              TGI  > 100 µM
5        Cc1cc(=O)[nH]c(CNC(=O)Cc2ccccc2)n1  DMS 273 small cell lung              TGI  > 100 µM
6  CC(C)c1cccc(C(C)C)c1NC1=CC(=O)C(=O)c2ccccc21  DMS 273 small cell lung              TGI  > 100 µM
7  O=C(O)Cc1ccc2c(c1O)C(=O)c1c(ccc(CC(=O)O)c1O)C2=O  DMS 273 small cell lung              TGI  > 100 µM
8  O=C1C2Nc3ccccc3SC2C(=O)N1c1cccc([N+](=O)[O-])c1 (stereo not given)  DMS 273 small cell lung              TGI  > 100 µM

We now examine a further compound.
QUERY: State the measured TGI (DMS 273 small cell lung) of CS(=O)(=O)OCc1c(O)c2c(c(O)c1COS(C)(=O)=O)C(=O)C=CC2=O
RESULT: > 100 µM

Taken from PubChem BioAssay (NCI).
